- experimental-protocol: total protein half-life in vivo (active degradation + dilution); higher = more stable protein
- test-conditions: E. coli NCM3722 delta-smpB; growth: N-lim chemostat; doubling time 6 h
Kindly supply the reported total protein half-life in vivo values for the records listed here.
One number for each entry, in h.

Sample records with total protein half-life in vivo:
MRNLVKYVGIGLLVMGLAACDDKDTNATAQGSVAESNATGNPVNLLDGKLSFSLPADMTDQSGKLGTQANNMHVWSDATGQKAVIVIMGDDPKEDLAVLAKRLEDQQRSRDPQLQVVTNKAIELKGHKMQQLDSIISAKGQTAYSSVILGNVGNQLLTMQITLPADDQQKAQTTAENIINTLVIQ [P0AEE1] ... 6.05
MRFYRPLGRISALTFDLDDTLYDNRPVILRTEREALTFVQNYHPALRSFQNEDLQRLRQAVREAEPEIYHDVTRWRFRSIEQAMLDAGLSAEEASAGAHAAMINFAKWRSRIDVPQQTHDTLKQLAKKWPLVAITNGNAQPELFGLGDYFEFVLRAGPHGRSKPFSDMYFLAAEKLNVPIGEILHVGDDLTTDVGGAIRSGMQACWIRPENGDLMQTWDSRLLPHLEISRLASLTSLI [P0ADP0] ... 3.76
MTDMNILDLFLKASLLVKLIMLILIGFSIASWAIIIQRTRILNAAAREAEAFEDKFWSGIELSRLYQESQGKRDNLTGSEQIFYSGFKEFVRLHRANSHAPEAVVEGASRAMRISMNRELENLETHIPFLGTVGSISPYIGLFGTVWGIMHAFIALGAVKQATLQMVAPGIAEALIATAIGLFAAIPAVMAYNRLNQRVNKLELNYDNFMEEFTAILHRQAFTVSESNKG [P0ABU9] ... 6.07
MKKRKTVKKRYVIALVIVIAGLITLWRILNAPVPTYQTLIVRPGDLQQSVLATGKLDALRKVDVGAQVSGQLKTLSVAIGDKVKKDQLLGVIDPEQAENQIKEVEATLMELRAQRQQAEAELKLARVTYSRQQRLAQTKAVSQQDLDTAATEMAVKQAQIGTIDAQIKRNQASLDTAKTNLDYTRIVAPMAGEVTQITTLQGQTVIAAQQAPNILTLADMSAMLVKAQVSEADVIHLKPGQKAWFTVLGDPLTRYEGQIKDVLPTPEKVNDAIFYYARFEVPNPNGLLRLDMTAQVHIQLTDVKNVLTIPLSALGDPVGDNRYKVKLLRNGETREREVTIGARNDTDVEIVKGLEAGDEVVIGEAKPGAAQ ... 6.19
MNKSQLIDKIAAGADISKAAAGRALDAIIASVTESLKEGDDVALVGFGTFAVKERAARTGRNPQTGKEITIAAAKVPSFRAGKALKDAVN [P0ACF4] ... 5.51

Can you give me total protein half-life in vivo for all of these, one by one?
1. MKKWAVIISAVGLAFAVSGCSSDYVMATKDGRMILTDGKPEIDDDTGLVSYHDQQGNAMQINRDDVSQIIER
2. MTVETQLNPTQPVNQQIYRILRRDIVHCLIAPGTPLSEKEVSVRFNVSRQPVREAFIKLAENGLIQIRPQRGSYVNKISMAQVRNGSFIRQAIECAVARRAASMITESQCYQLEQNLHQQRIAIERKQLDDFFELDDNFHQLLTQIADCQLAWDTIENLKATVDRVRYMSFDHVSPPEMLLRQHLDIFSALQKRDGDAVERAMTQHLQEISESVRQIRQENSDWFSEE [P0ACM2]

1: 3.25; 2: 4.12

* * *

Kindly supply the reported total protein half-life in vivo values for the records listed here.
- experimental-protocol: total protein half-life in vivo (active degradation + dilution); higher = more stable protein
- test-conditions: wild type E. coli NCM3722; growth: C-lim chemostat; doubling time 3 h
Answers are plain numbers, in h.

Sample records with total protein half-life in vivo:
MTTMLEVAKRAGVSKATVSRVLSGNGYVSQETKDRVFQAVEESGYRPNLLARNLSAKSTQTLGLVVTNTLYHGIYFSELLFHAARMAEEKGRQLLLADGKHSAEEERQAIQYLLDLRCDAIMIYPRFLSVDEIDDIIDAHSQPIMVLNRRLRKNSSHSVWCDHKQTSFNAVAELINAGHQEIAFLTGSMDSPTSIERLAGYKDALAQHGIALNEKLIANGKWTPASGAEGVEMLLERGAKFSALVASNDDMAIGAMKALHERGVAVPEQVSVIGFDDIAIAPYTVPALSSVKIPVTEMIQEIIGRLIFMLDGGDFSPPKTFSGKLIRRDSLIAPSR ... 3
MEPLREIRNRLLNGWQLSKMHTFEVAARHQSFALAAEELSLSPSAVSHRINQLEEELGIQLFVRSHRKVELTHEGKRVYWALKSSLDTLNQEILDIKNQELSGTLTLYSRPSIAQCWLVPALGDFTRRYPSISLTVLTGNDNVNLQRAGIDLAIYFDDAPSAQLTHHFLMDEEILPVCSPEYAQRHALTNTVINLCHCTLLHDRQAWSNDSGTDEWHSWAQHYAVNLPTSSGIGFDRSDLAVIAAMNHIGVAMGRKRLVQKRLASGELVAPFGDMTVKCHQHYYITTLPGRQWPKIEAFIIWLREQVKTTS ... 2.74
MVLMIVSGRSGSGKSVALRALEDMGFYCVDNLPVVLLPDLARTLADREISAAVSIDVRNMPESPEIFEQAMSNLPDAFSPQLLFLDADRNTLIRRYSDTRRLHPLSSKNLSLESAIDKESDLLEPLRSRADLIVDTSEMSVHELAEMLRTRLLGKRERELTMVFESFGFKHGIPIDADYVFDVRFLPNPHWDPKLRPMTGLDKPVAAFLDRHTEVHNFIYQTRSYLELWLPMLETNNRSYLTVAIGCTGGKHRSVYIAEQLADYFRSRGKNVQSRHRTLEKRKP [P0A894] ... 3.02
MSAKHPVIAVTGSSGAGTTTTSLAFRKIFAQLNLHAAEVEGDSFHRYTRPEMDMAIRKARDAGRHISYFGPEANDFGLLEQTFIEYGQSGKGKSRKYLHTYDEAVPWNQVPGTFTPWQPLPEPTDVLFYEGLHGGVVTPQHNVAQHVDLLVGVVPIVNLEWIQKLIRDTSERGHSREAVMDSVVRSMEDYINYITPQFSRTHLNFQRVPTVDTSNPFAAKGIPSLDESFVVIHFRNLEGIDFPWLLAMLQGSFISHINTLVVPGGKMGLAMELIMLPLVQRLMEGKKIE [P0AEX5] ... 2.96

Then there is this sequence:
Tell me its total protein half-life in vivo given MSESVQSNSAVLVHFTLKLDDGTTAESTRNNGKPALFRLGDASLSEGLEQHLLGLKVGDKTTFSLEPDAAFGVPSPDLIQYFSRREFMDAGEPEIGAIMLFTAMDGSEMPGVIREINGDSITVDFNHPLAGQTVHFDIEVLEIDPALEA [P0AEM0] as the entry. 2.84

* * *

- experimental-protocol: total protein half-life in vivo (active degradation + dilution); higher = more stable protein
- test-conditions: wild type E. coli NCM3722; growth: P-lim chemostat; doubling time 12 h
quantity-name: total protein half-life in vivo (h)
Numbers only, in h.

Sample records with total protein half-life in vivo:
MEYQHWLREAISQLQASESPRRDAEILLEHVTGRGRTFILAFGETQLTDEQCQQLDALLTRRRDGEPIAHLTGVREFWSLPLFVSPATLIPRPDTECLVEQALARLPEQPCRILDLGTGTGAIALALASERPDCEIIAVDRMPDAVSLAQRNAQHLAIKNIHILQSDWFSALAGQQFAMIVSNPPYIDEQDPHLQQGDVRFEPLTALVAADSGMADIVHIIEQSRNALVSGGFLLLEHGWQQGEAVRQAFILAGYHDVETCRDYGDNERVTLGRYYQ [P0ACC1] ... 9.69
MTKQPPIAKADLQKTQGNRAPAAVKNSDVISFINQPSMKEQLAAALPRHMTAERMIRIATTEIRKVPALGNCDTMSFVSAIVQCSQLGLEPGSALGHAYLLPFGNKNEKSGKKNVQLIIGYRGMIDLARRSGQIASLSARVVREGDEFSFEFGLDEKLIHRPGENEDAPVTHVYAVARLKDGGTQFEVMTRKQIELVRSLSKAGNNGPWVTHWEEMAKKTAIRRLFKYLPVSIEIQRAVSMDEKEPLTIDPADSSVLTGEYSVIDNSEE ... 4.09
MKKIPLGTTDITLSRMGLGTWAIGGGPAWNGDLDRQICIDTILEAHRCGINLIDTAPGYNFGNSEVIVGQALKKLPREQVVVETKCGIVWERKGSLFNKVGDRQLYKNLSPESIREEVAASLQRLGIDYIDIYMTHWQSVPPFFTPIAETVAVLNELKSEGKIRAIGAANVDADHIREYLQYGELDIIQAKYSILDRAMENELLPLCRDNGIVVQVYSPLEQGLLTGTITRDYVPGGARANKVWFQRENMLKVIDMLEQWQPLCARYQCTIPTLALAWILKQSDLISILSGATAPEQVRENVAALNINLSDADATLMREMAEALER ... 11.9
MTMYATLEEAIDAAREEFLADNPGIDAEDANVQQFNAQKYVLQDGDIMWQVEFFADEGEEGECLPMLSGEAAQSVFDGDYDEIEIRQEWQEENTLHEWDEGEFQLEPPLDTEEGRAAADEWDER ... 7.26
MFKKGLLALALVFSLPVFAAEHWIDVRVPEQYQQEHVQGAINIPLKEVKERIATAVPDKNDTVKVYCNAGRQSGQAKEILSEMGYTHVENAGGLKDIAMPKVKG ... 3.19

Can you give me total protein half-life in vivo for all of these, one by one?
1. MTSLYLASGSPRRQELLAQLGVTFERIVTGIEEQRQPQESAQQYVVRLAREKARAGVAQTAKDLPVLGADTIVILNGEVLEKPRDAEHAAQMLRKLSGQTHQVMTAVALADSQHILDCLVVTDVTFRTLTDEDIAGYVASDEPLDKAGAYGIQGLGGCFVRKINGSYHAVVGLPLVETYELLSNFNALREKRDKHDG
2. MKICLIDETGTGDGALSVLAARWGLEHDEDNLMALVLTPEHLELRKRDEPKLGGIFVDFVGGAMAHRRKFGGGRGEAVAKAVGIKGDYLPDVVDATAGLGRDAFVLASVGCRVRMLERNPVVAALLDDGLARGYADAEIGGWLQERLQLIHASSLTALTDITPRPQVVYLDPMFPHKQKSALVKKEMRVFQSLVGPDLDADGLLEPARLLATKRVVVKRPDYAPPLANVATPNAVVTKGHRFDIYAGTPV

1. 11.9
2. 12.9
